Entry source: ChEMBL document CHEMBL1201862

system: 786-0; test: NCI tumour cell line growth inhibition, 48 h
The source made the active and inactive calls. Cut-off read from the data, not from the text of the source: active = GI50 up to about 1.1 µM and inactive = higher.
Bench note: report the call from active, inactive

**Q:** What was the test verdict on C(=C\Nc1ccc(Oc2ccccc2)cc1)/C=N/c1ccc(Oc2ccccc2)cc1 ?
**A:** inactive

**Q:** I would be grateful if you could indicate the recorded call for O=[N+]([O-])c1ccc2[nH]nc(OCc3ccccn3)c2c1 .
**A:** inactive

---

test system: CAKI-1; assay: NCI tumour cell line growth inhibition, 48 h
Active and inactive are the calls of the source. Rule as the data show it: active = GI50 up to about 1.1 µM and inactive = higher.
Kindly supply the reported GI50 values for the records listed here.

Consider the reported GI50 for these compounds:
1) CCN(CCO)C(=O)C1(c2ccccc2)CCCCC1 > 10 µM (inactive)
2) O/N=C\C(=N/O)Nc1ccc(Cc2ccc(NC(/C=N\O)=N/O)cc2)cc1 18.8 µM (inactive)
3) C=Cc1cnc([N+](=O)[O-])n1C 42.5 µM (inactive)
4) Cc1ccc2nc3c(=O)[nH]c(=O)nc-3n(C)c2c1C > 100 µM (inactive)
5) CCCc1cc(=O)oc2c3c(c4c(c12)OC(C)(C)CC4)O[C@@H](C)[C@H](C)[C@H]3O 35.1 µM (inactive)

With those in mind, consider the next compound.
**Q:** Request the reported GI50 associated with COc1ccc(OC)c(/C=C/NC=O)c1
**A:** > 100 µM (inactive)

---

tested on: K562; test: NCI tumour cell line growth inhibition, 48 h
Active and inactive are the calls of the source. Rule as the data show it: active = GI50 up to about 1.1 µM and inactive = higher.
Outcome (select one): active, inactive

Before answering, review these 3 worked examples.
Compound	Qualitative Label
COc1cc(C2c3cc4c(cc3OC(NNC(N)=O)C2C)OCO4)cc(OC)c1OC (centres undefined)	active
COC(=O)/C(=N/Nc1cccc(Cl)c1)C(C(=O)C(=O)Nc1cccc(Cl)c1C)c1nc2ccccc2nc1C (centres undefined)	inactive
CCOC(=O)N1CCC(N[C@@H]2c3cc4c(cc3[C@@H](c3cc(OC)c(O)c(OC)c3)[C@H]3C(=O)OC[C@@H]32)OCO4)CC1	inactive

**Q:** // outcome(item) with item = CN(C)/N=C(/c1nc2ccc(Cl)cc2nc1O)C(O)c1ccc(C(O)/C(=N\N(C)C)c2nc3ccc(Cl)cc3nc2O)cc1 (centres undefined)
**A:** inactive

---

I'd appreciate it if you could supply GI50 values for the items below.
tested on: NCI-H23; assay: NCI tumour cell line growth inhibition, 48 h
Calls of active or inactive are those of the source. Cut-off read from the data, not from the text of the source: active = GI50 up to about 1.1 µM and inactive = higher.

Example compounds with recorded GI50:
Compound	GI50
O=c1ccn(CC2(CO)CCC2)c(=O)[nH]1	> 100 µM (inactive)
NCCn1ccc(NC(c2ccccc2)(c2ccccc2)c2ccccc2)nc1=O	> 10 µM (inactive)
CCOc1ccc(NC(=O)C(=O)CC(=O)c2c(C)[n+]([O-])c3ccccc3[n+]2[O-])cc1	> 100 µM (inactive)
O=[N+]([O-])c1cccc2c(/N=N/c3ccc4ccccc4c3O)c(O)cc(S(=O)(=O)O)c12	33.3 µM (inactive)
C#CCN(Cc1ccc2nc(-c3ccccc3)c(Cl)nc2c1)c1cc(OC)c(OC)c(OC)c1	> 100 µM (inactive)
Cc1ccc2nc3c(=O)[nH]c(=O)nc-3n(C)c2c1C	> 100 µM (inactive)
CN(C)c1ccc(C2CC(=O)CC(c3ccc(N(C)C)cc3)C23C(=O)NC(=S)NC3=O)cc1 (stereo unspecified)	91.2 µM (inactive)
COc1ccc(C(=O)/C=C/c2cccnc2)cc1OC	10.6 µM (inactive)

Working through the 4 compounds below one at a time, give GI50 for each.
1. CCOc1cc2c(cc1O)CC[C@@H]1[C@@H]2CC[C@]2(C)C(N)CC[C@@H]12 (stereo partly specified)
2. CN(C)CC1CCCC1=O (stereo unspecified)
3. COP(C)(=O)/C(Cc1ccccc1)=N\O (stereo unspecified)
4. COc1cc2ccc1OCc1cccc(n1)COc1ccc(cc1OC)/C=N\c1ccc(cc1)/N=C\2

**A:**
1: 3.48 µM (inactive); 2: 4.48 µM (inactive); 3: > 100 µM (inactive); 4: > 100 µM (inactive)

---

tested on: SF-268; assay: NCI tumour cell line growth inhibition, 48 h
Calls of active or inactive are those of the source. Cut-off read from the data, not from the text of the source: active = GI50 up to about 1.1 µM and inactive = higher.
Form entry, call: pick from active, inactive

Completed entries (count: 8):
Compound	Qualitative Label
COc1cc2c(cc1O)c(O)cc1c3cc(OC)c(OC)cc3c[n+](C)c21	active
C/C(CC/C(C)=N/O)=N\O	inactive
CC(C)COC(=O)c1ccc(/N=C\c2ccc(/C=N/c3ccc(C(=O)OCC(C)C)cc3)cc2)cc1	inactive
COc1cc(C)cc(C(=O)/C=C/c2ccccc2)c1O	inactive
O=C1NC2(CCCCC2)C2CCCCC(O)C12 (stereo not given)	inactive
COC(=O)[C@@H](NS(=O)(=O)CC12CCC(CC1)C2(C)C)C(C)(C)C	inactive
CN(C)/N=C(/c1nc2ccc(Cl)cc2nc1O)C(O)c1ccc(C(O)/C(=N\N(C)C)c2nc3ccc(Cl)cc3nc2O)cc1 (stereo not given)	inactive
CC1=NC(=Cc2cccc(Cl)c2)C(=O)N1n1c(-c2ccccc2)nc2ccccc2c1=O	inactive

**Q:** State the result this test recorded for CC(C)(C)c1ccc(C(O)c2ccc(C(C)(C)C)cc2)cc1 .
**A:** inactive

**Q:** I would be grateful if you could indicate the recorded call for CC[C@@]12C=CC(=S)N(CCSc3ccccc3)[C@@H]1c1c(n(S(=O)(=O)c3ccc(OC)cc3)c3ccccc13)CC2 .
**A:** inactive

---

test system: CAKI-1; test: NCI tumour cell line growth inhibition, 48 h
Active and inactive are the calls of the source. No stated cut-off is given here; in the data, active = GI50 up to about 1.1 µM and inactive = higher.
Give GI50 for every item shown.

Each compound below has a reported value. Please supply its GI50.
1. C#CCN1C(=O)CN2C(Cl)(Cl)C2(c2ccccc2)c2cc(Cl)ccc21 (stereo unspecified)
2. O=C1c2ccccc2C(=O)c2c1ccc(O)c2O
3. C=C1CC(C)(COc2ccc3c(C)c(C)c(=O)oc3c2C)OC1=O (stereo unspecified)
4. O=C1NC(=S)NC(=O)C1C(c1ccccc1[N+](=O)[O-])C1C(=O)NC(=S)NC1=O.c1ccncc1

**A:**
30.1 µM (inactive)
39.5 µM (inactive)
1.7 µM (inactive)
> 100 µM (inactive)

Give GI50 for all compounds that follow.
1. CSc1nc2nc(C)c(C)nc2c(=O)[nH]1
2. CN(C)CC(/C(Cc1ccccc1)=N\NC(=O)c1ccncc1)c1ccccc1 (stereo unspecified)
3. N#Cc1cccnc1Cl
4. COc1c2c(nc3ccccc13)-c1cc3c(c(=O)n1C2)COC(=O)C3(O)CC(=O)N1CCOCC1 (stereo unspecified)

**A:**
1. > 100 µM (inactive)
2. 44.3 µM (inactive)
3. > 100 µM (inactive)
4. 3.79 µM (inactive)

Provide each entry's GI50 from the list below.
1. COC(=O)[C@@H](NS(=O)(=O)CC12CCC(CC1)C2(C)C)C(C)(C)C
2. O=C(O)CC(Cc1ccccc1Cl)C(=O)O (stereo unspecified)
3. COc1ccc2[nH]cc(C(=O)C(=O)NC34CC5CC(CC(C5)C3)C4)c2c1

**A:**
1. > 100 µM (inactive)
2. > 100 µM (inactive)
3. > 45.4 µM (inactive)

---

tested on: UACC-62; assay: NCI tumour cell line growth inhibition, 48 h
Calls of active or inactive are those of the source. Cut-off read from the data, not from the text of the source: active = GI50 up to about 1.1 µM and inactive = higher. Where a SMILES comes first, the peptide text is derived from it. The star is where a group is joined. Cbz = O=C(OCc1ccccc1)*
# output must be one of class 1 = active, class 0 = inactive

Compound	Qualitative Label
O=C(O)CNS(=O)(=O)c1ccc(NC(=O)c2ccc(F)cc2)cc1	class 0
Nc1c([N+](=O)[O-])cc2c3c(cccc13)CC2	class 0
CC[C@]12C=CCN3CCC4(c5cc([C@@]6(C(=O)OC)CC7CN(CCc8c6[nH]c6ccccc86)CC6CCCCC67)c(OC)cc5N(C)C4[C@](O)(C(=O)OC)C1OC(C)=O)[C@@H]32 (stereo partly drawn)	class 1
CCC1CCC2C3CC=C4CC(OC(C)=O)C(N)CC4(C)C3CCC12C (stereo not drawn)	class 0
NC(C(=O)O)c1ccc(C(=O)O)cc1 (stereo not drawn)	class 0

**Q:** Called result for CCCCCCc1cc2cc(C(=O)Nc3nc(C45CC6CC(CC(C6)C4)C5)cs3)c(=O)oc2cc1O
**A:** class 0

**Q:** Status in this test for O=C1N=NC(=O)N1c1cc(C(F)(F)F)cc(C(F)(F)F)c1 ?
**A:** class 0

**Q:** Recorded test outcome, item CCOC(=O)C(CC(=O)OC)NC(=O)C(CC(=O)OC)NC(=O)C(CC(=O)OC)NC(=O)C(CC(=O)OC)NC(=O)OCc1ccccc1 (stereo not drawn) (Cbz-D(OMe)D(OMe)D(OMe)D(OMe)-OEt; configuration not given here)
**A:** class 0

---

Provide the reported GI50 of each item.
tested on: HL-60; assay: NCI tumour cell line growth inhibition, 48 h
Calls of active or inactive are those of the source. Rule as the data show it: active = GI50 up to about 1.1 µM and inactive = higher.

Some molecules with recorded GI50:
Molecule	GI50
Cc1cccc(C)c1NC(=S)NC=C1C(=O)c2ccccc2C1=O	2.45 µM (inactive)
CN(C)CCCNc1c2ccccc2[n+]([O-])c2ccccc12	51.8 µM (inactive)
COC(=O)Cc1c([C@H]2[C@H](CC(=O)OC)c3ccccc3N2C(=O)C(F)(F)F)[nH]c2ccccc12	40.3 µM (inactive)
O=c1[nH]nc(-c2ccc([N+](=O)[O-])cc2)n1/N=C/c1ccc([N+](=O)[O-])cc1	30.4 µM (inactive)

Now for another entry.
**Q:** Which GI50 reading was recorded for the molecule COC(=O)C1(C(=O)OC)N=C(C)OC1c1ccccc1O (stereo not given) ?
**A:** > 100 µM (inactive)
